Value source: ChEMBL document CHEMBL1154167

Tested on: Haemophilus influenzae
TEST DETAILS: Antibacterial activity against multidrug-susceptible Haemophilus influenzae 1325 infected in po dosed Mongolian gerbil otitis media model assessed as reduction of bacterial infection administered 18 hrs postinfection TID for 2 days measured on day 4 postinfection
Type: functional
CONDITION CONTEXT: Haemophilus influenzae, 1325, po
REPORTED PROPERTY: ED50 (mg/kg)
Answer in mg/kg, number only, no unit symbol.

Worked examples, 2 compounds total:
{"columns": ["SMILES CODE", "REPORTED PROPERTY", "QUANTITATIVE READOUT"],
 "data": [
  ["CC[C@H]1OC(=O)[C@H](C)C(=O)[C@H](C)[C@@H](O[C@@H]2O[C@H](C)C[C@H](N(C)C)[C@H]2O)[C@](C)(O)C[C@@H](C)C(=O)[C@H](C)[C@H]2N(C3CN([C@H](C)c4ccnc5ncccc45)C3)C(=O)O[C@]12C", "ED50", 35.6],
  ["CC[C@H]1OC(=O)[C@H](C)C(=O)[C@H](C)[C@@H](O[C@@H]2O[C@H](C)C[C@H](N(C)C)[C@H]2O)[C@](C)(OC)C[C@@H](C)C(=O)[C@H](C)[C@H]2N(CCCCn3cnc(-c4cccnc4)c3)C(=O)O[C@]12C", "ED50", 37.5]
]}

Then this compound:
Identify the measured ED50 of `CC[C@H]1OC(=O)[C@H](C)C(=O)[C@H](C)[C@@H](O[C@@H]2O[C@H](C)C[C@H](N(C)C)[C@H]2O)[C@](C)(O)C[C@@H](C)C(=O)[C@H](C)[C@H]2N(C3CN(Cc4c(O)cnc5cccnc45)C3)C(=O)O[C@]12C` for Haemophilus influenzae.
53.6
